- Organism: Homo sapiens
- experiment.notes: Selectivity for human cloned ORL1 receptor over human mu opioid receptor
result.type: fold change (FC)

Q: Entry COC(=O)NC1(c2ccc(F)cn2)C[C@H]2CC[C@H](C1)N2C(c1ccccc1Cl)c1ccccc1Cl (relative stereo) : reported fold change (FC) = ?
A: 74

Q: Repeat with CC(=O)N[C@]1(c2ccccn2)C[C@H]2CC[C@@H](C1)N2C(c1ccccc1Cl)c1ccccc1Cl
A: 52

Q: Repeat with CC(=O)N[C@]1(c2ccc(F)cn2)C[C@H]2CC[C@@H](C1)N2C(c1ccccc1Cl)c1ccccc1Cl
A: 60

Q: Repeat with N[C@]1(c2ccc(F)cn2)C[C@H]2CC[C@@H](C1)N2C(c1ccccc1Cl)c1ccccc1Cl
A: 32

* * *

- system.tested: Mu-type opioid receptor (Homo sapiens)
- Sequence (P35372 whole entry): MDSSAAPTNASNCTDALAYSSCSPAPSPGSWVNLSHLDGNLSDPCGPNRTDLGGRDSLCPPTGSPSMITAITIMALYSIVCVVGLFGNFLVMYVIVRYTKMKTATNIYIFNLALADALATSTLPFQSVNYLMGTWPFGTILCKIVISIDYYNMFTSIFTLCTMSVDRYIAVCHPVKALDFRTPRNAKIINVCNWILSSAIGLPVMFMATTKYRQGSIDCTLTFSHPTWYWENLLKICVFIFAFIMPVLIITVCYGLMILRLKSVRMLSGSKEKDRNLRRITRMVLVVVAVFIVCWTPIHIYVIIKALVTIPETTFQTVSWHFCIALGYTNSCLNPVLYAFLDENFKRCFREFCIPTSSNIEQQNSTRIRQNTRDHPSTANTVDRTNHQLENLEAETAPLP
- experiment.notes: Agonist activity at human mu opioid receptor assessed as stimulation of GTPgammaS binding at 10 uM
- Assay type: functional
// reported Activity for each item listed
Give the number; % is assumed, so skip it.

Previously resolved entries follow.
>  <smiles.structure>
NC(=O)[C@@]1(Cc2ccc(F)cc2)C[C@H]2CC[C@@H](C1)N2C(c1ccccc1Cl)c1ccccc1Cl

>  <Activity [%]>
107

$$$$
>  <smiles.structure>
COC(=O)N[C@]1(c2ccccn2)C[C@H]2CC[C@@H](C1)N2C(c1ccccc1Cl)c1ccccc1Cl

>  <Activity [%]>
52

$$$$
>  <smiles.structure>
CC(=O)N[C@]1(c2ccccn2)C[C@H]2CC[C@@H](C1)N2C(c1ccccc1Cl)c1ccccc1Cl

>  <Activity [%]>
68

$$$$
>  <smiles.structure>
NC(=O)[C@]1(c2ccc(Br)cn2)C[C@H]2CC[C@@H](C1)N2C(c1ccccc1Cl)c1ccccc1Cl

>  <Activity [%]>
89

$$$$

// next entry
Q: Entry NC(=O)[C@]1(c2ccc(Cl)cn2)C[C@H]2CC[C@@H](C1)N2C(c1ccccc1Cl)c1ccccc1Cl : reported Activity = ?
A: 97

* * *

- system.tested: Nociceptin receptor (Homo sapiens)
- Sequence (P41146 whole entry): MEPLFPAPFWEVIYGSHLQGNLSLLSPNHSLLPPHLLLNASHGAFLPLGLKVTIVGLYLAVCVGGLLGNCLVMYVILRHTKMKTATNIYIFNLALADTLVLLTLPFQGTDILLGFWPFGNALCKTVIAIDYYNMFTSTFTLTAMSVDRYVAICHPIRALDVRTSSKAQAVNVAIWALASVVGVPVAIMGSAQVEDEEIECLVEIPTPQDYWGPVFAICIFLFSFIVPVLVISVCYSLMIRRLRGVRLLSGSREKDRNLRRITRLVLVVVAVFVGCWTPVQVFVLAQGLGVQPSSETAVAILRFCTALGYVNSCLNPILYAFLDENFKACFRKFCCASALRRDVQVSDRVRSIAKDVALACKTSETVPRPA
result.type: pKi
Formally, pKi is defined as -log10 of the concentration c, with c in mol/L.

Previously resolved entries follow.
>  <smiles.structure>
NC(=O)[C@]1(c2cc(F)cc(F)n2)C[C@H]2CC[C@@H](C1)N2C(c1ccccc1Cl)c1ccccc1Cl

>  <value.observed>
7.82

$$$$
>  <smiles.structure>
CC(=O)NC[C@]1(c2ccccc2)C[C@H]2CC[C@@H](C1)N2C(c1ccccc1Cl)c1ccccc1Cl

>  <value.observed>
7.70

$$$$
>  <smiles.structure>
NC(=O)[C@]1(c2nc(F)ccc2F)C[C@H]2CC[C@@H](C1)N2C(c1ccccc1Cl)c1ccccc1Cl

>  <value.observed>
7.80

$$$$

Q: // fetch Nociceptin receptor (Homo sapiens) pKi for COC(=O)N[C@]1(c2ccc(Cl)cn2)C[C@H]2CC[C@@H](C1)N2C(c1ccccc1Cl)c1ccccc1Cl
A: 7.92

Q: Repeat with COC(=O)N[C@]1(c2ccccn2)C[C@H]2CC[C@@H](C1)N2C(c1ccccc1Cl)c1ccccc1Cl
A: 8.00

Q: Repeat with NC(=O)[C@]1(c2cc(F)c(F)cn2)C[C@H]2CC[C@@H](C1)N2C(c1ccccc1Cl)c1ccccc1Cl
A: 8.05

Q: Repeat with CC(=O)N[C@]1(c2ccccn2)C[C@H]2CC[C@@H](C1)N2C(c1ccccc1Cl)c1ccccc1Cl
A: 8.22

Q: Repeat with NC(=O)[C@]1(c2ccc(N)cn2)C[C@H]2CC[C@@H](C1)N2C(c1ccccc1Cl)c1ccccc1Cl
A: 7.51
